test system: UO-31 renal; assay: NCI-60 one-dose screen, 48 h (100 = growth as untreated, 0 = no growth, -100 = all killed); conditions: 10 µM unless noted
About 83,000 compounds went through this panel and 20% of them were active in at least one assay; those are over-represented in the sample as a whole.
// class assignment uses growth with these ranges: lower band (below 50%), central band (50% to below 80%), upper band (80% or more)

compound | qualitative label
COc1ccccc1Cn1cc2c(c1)-c1oncc1CC2 | lower band
COc1cc(/C=C/C(=O)c2ccc(F)cc2)ccc1OCCCCOc1cc2c(cc1OC)C(=O)N1CCCC1C=N2 (stereo unspecified) | lower band
CCS(=O)(=O)OCCO[C@H]1Cc2cc3ccc(=O)oc3cc2OC1(C)C | upper band
FC(F)(F)c1cccc(-c2[nH]ncc2-c2nnnn2-c2ccccc2)c1 | central band
COc1ccc(CN2C(=O)/C(=C\C(=O)c3ccc(OCCN4CCCC4)cc3)c3ccccc32)cc1 | central band
O=C(Nc1ccc(-n2cc(-c3ccncc3)c(-c3ccc(Cl)c(O)c3)n2)cc1)Nc1cc(C(F)(F)F)cc(C(F)(F)F)c1 | lower band
CC1=C(C)C[C@]2(C(=O)O[C@H]3CCCC[C@@H]32)[S@](=O)C1 | upper band
CC(=O)CC(=O)OC/C=C(/C)CCC=C(C)C | upper band
CC(=O)OCC(=O)[C@@]1(O)[C@H](C)C[C@H]2[C@@H]3C=C(C)C4=Cc5c(cnn5-c5ccc(F)cc5)C[C@]4(C)[C@H]3[C@@H](O)C[C@@]21C | lower band
O=C(c1ccccc1)c1ccccc1-c1ccccc1 | lower band
O=C1/C(=C/c2ccc(Cl)cc2)CCC/C1=C\c1ccc(Cl)cc1 | central band
COc1cc(NC(C)CCCN)c2nc(C)ccc2c1OC (stereo unspecified) | upper band
CCCCCCCCc1ccc(OCCOCC[N+](C)(C)CC)cc1 (tested in a mixture with another compound) | upper band
Oc1ccccc1\C=N/N=C/C=C/c1ccccc1 | central band
Cc1ccc(OCCn2ccc(=O)n(CCOc3ccc(Cl)cc3C(=O)c3cc(C)cc(C)c3)c2=O)cc1 | lower band
C=C(C)[C@@H]1CC[C@]2(COC(=O)c3ccccc3C(=O)O)CC[C@]3(C)[C@H](CC[C@@H]4[C@@]5(C)CCCNC(C)(C)[C@@H]5CC[C@]43C)[C@@H]12 | central band
Cc1ncc(C(=O)Nc2ccc(CN3CCN(C)CC3)c(C(F)(F)F)c2)cc1C#Cc1c(N)ncc2ccccc12 | lower band
CCCCCCNC(=O)Oc1ccc(/C(=C(/C)Cc2ccc(OC)cc2)c2ccc(OCCN3CCCCC3)cc2)cc1 | central band
CCCCCCCCCC[N+](C)(C)N | upper band
N#Cc1ccc(NC2c3ccccc3CC2O)cc1 (stereo unspecified) | upper band
CCCCCCC(=O)C(C)C | upper band
CC(=O)NNC(=O)c1sc(NC(C)=O)nc1C | upper band
O=C(Nc1ccc(Cl)c(Cl)c1)O/N=C\c1c(Cl)ccc([N+](=O)[O-])c1Cl | lower band
Cc1ccc(CC(=O)O)c(C)c1 | upper band
CN1CCN(Cc2ccc(NC(=O)c3cncc(C#Cc4c(N)ncc5ccc(F)cc45)c3)cc2C(F)(F)F)CC1 | lower band
Nc1ccc(S(=O)(=O)c2ccc(NO)cc2)cc1 | upper band
CC1(c2ccc(Br)cc2)NC(=O)NC1=O (stereo unspecified) | upper band
CCCCCCN(CCCCCC)CCC(=O)Nc1ccc(S(=O)(=O)c2ccc(NC(=O)CCN(CCCCCC)CCCCCC)cc2)cc1 | central band
CC[C@@H](C)/C=C(C)/C=C/C(=O)c1c(O)c(-c2ccc(OC(=O)[C@@]34CC[C@@](C)(C(=O)O3)C4(C)C)cc2)cn(O)c1=O | lower band
CCC(C)(C)c1ccc(OCCCCCCN2CCNCC2)cc1 | central band
Oc1ccc(N=Nc2ccc(N=Nc3ccccc3)cc2)cc1 | lower band
CSc1nc(N)n2nccc2n1 | central band
CC(O)CN(CC(C)O)N(CC(C)O)CC(C)O (stereo unspecified) | upper band
O=C(CCl)c1ccc2c(c1)CCCC2 | upper band
CC(=O)N1CCN(CCNC(=O)n2cc(-c3ccncc3)c(-c3cc(O)cc(Cl)c3)n2)CC1 | central band
COc1nc(OC)nc(-c2cc(C(=O)c3ccc(Br)cc3)n3cc(C)cc(C)c23)n1 | central band
CCOC(=O)c1c(C)oc2ncnc(Nc3ccc(NC(=O)Nc4ccc(CC)cc4)cc3)c12 | upper band

Data provenance is PubChem BioAssay (NCI).
